Give measured MFI for each item. Keep answers brief.
TGT: T1, human TMEM106B (human, UniProt Q9NUM4 2-274)
T1 construct: Full-length, on transiently transfected HEK293 cells, or natively expressed on HeLa, U251 and A549 cells; also called huTMEM106B; huTMEM
TEST PROTOCOL: FACS HEK+huTMEM, 1.0 ug/ml
Lab note: record just the number, no unit beside it.

Q: Requested field: MFI. Item: anti-TMEM106B antibody TM-39 (antibody, V domains shown) VH: HVQRQQSGTELAKPGASVKLSCKTSGYTFTDYWMHWIKQRPGQGLEWIGFINPSSGYTKYNQNFKDKATLTADKSSSTAYMQLSSLTYEDSAVFYCAREAGSISDWYFDVWGTGTTVTVSS VL: DIVMTQAAPSIPVTPGESVSISCRSSKTLLNSNGNTYLYWFLQRPGQPPQLLIYRMSNLASGVPDRFSGSGSGTAFTLRISRVEAEDVGVYYCMQHLDYPYTFGGGTQLEIK
Ans: 55600

Q: Requested field: MFI. Item: anti-TMEM106B antibody TM-1 (antibody, V domains shown) VH: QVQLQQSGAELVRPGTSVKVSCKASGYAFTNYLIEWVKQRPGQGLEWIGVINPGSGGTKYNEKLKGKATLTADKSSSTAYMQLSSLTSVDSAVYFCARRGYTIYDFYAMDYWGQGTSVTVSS VL: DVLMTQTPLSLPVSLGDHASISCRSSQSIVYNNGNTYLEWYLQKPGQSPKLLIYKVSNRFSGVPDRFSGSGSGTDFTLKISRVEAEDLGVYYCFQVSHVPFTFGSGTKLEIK
Ans: 2010

Q: Requested field: MFI. Item: anti-TMEM106B antibody TM-28 (antibody, V domains shown) VH: EVQLQQSGPVLVKPGPSVKISCMASVFTFNDYYIHWVKQSHGKSLEWIGLVYPYNGGTNYNQNFKGKATLTVDTSSRTAYMELNSLTSEDSAVYYCARSYFSNPIGYWGQGTLVTVSE VL: DIVMTQSPSSLSVSVGEKVTVSCKSSQSLLNSGNQKNYLAWYQQKPGQPPKLLIYGASTRESGVPDRFTGSGSGTDFTLTISSVQAEDLAVYYCQNDHSYPLTFGAGTKLELK
Ans: 66400
